- System: Zymoseptoria tritici (SEPTTR-184)
- ASSAY OVERVIEW: Cyp51 dsRNA tile (fragment) foliar application bioassay (Example 6)
- Format: in vivo
- TEST SETTINGS: 3 days curative; calculated from disease control
MEASUREMENT TYPE: ED50 (ppm) SEPTTR-184 3DC
A number alone suffices; assume ppm.

State, in one line, measured ED50 (ppm) SEPTTR-184 3DC of MgCyp51-T7: dsRNA tile of Zymoseptoria tritici Cyp51, 111 bp, location 1490-1600 (nucleic acid, listed as Zymoseptoria tritici, long dsRNA tile, purified, chemistry not given here) CGACGATGGTTCGCGATTTCAAGTTTTACAATGTGGATGGCAGCGACAACGTGGTGGGTACGGATTACAGCAGTTTGTTCAGCCGGCCGCTGTCGCCGGCAGTAGTAAAGT
5.331
